target: RAC-alpha serine/threonine-protein kinase (Homo sapiens, UniProt P31749); test: Inhibition of Akt after 1 hr by fluorescence polarization assay
Sequence (P31749 whole entry): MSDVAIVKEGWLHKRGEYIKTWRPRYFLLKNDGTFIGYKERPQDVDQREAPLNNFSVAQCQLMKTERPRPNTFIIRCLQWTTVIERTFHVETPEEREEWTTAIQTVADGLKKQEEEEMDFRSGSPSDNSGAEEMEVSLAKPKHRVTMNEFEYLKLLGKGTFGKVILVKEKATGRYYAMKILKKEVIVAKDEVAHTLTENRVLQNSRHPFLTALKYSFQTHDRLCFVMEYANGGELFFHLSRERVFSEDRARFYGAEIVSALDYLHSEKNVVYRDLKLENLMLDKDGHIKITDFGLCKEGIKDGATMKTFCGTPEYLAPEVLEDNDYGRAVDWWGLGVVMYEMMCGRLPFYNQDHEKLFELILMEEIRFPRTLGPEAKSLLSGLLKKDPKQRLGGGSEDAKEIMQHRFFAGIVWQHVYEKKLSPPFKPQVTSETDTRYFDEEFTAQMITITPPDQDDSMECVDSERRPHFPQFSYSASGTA
pIC50: −log10 of the molar value.
Listing: pIC50 of selected substances
Quantity: pIC50

In [3]: df
Out[3]:
        substance                             target_entity  reported_value
0  Ac-GRPRTTFF-OH  RAC-alpha serine/threonine-protein kinase (Homo sapiens, UniProt P31749)          < 3.30
1  Ac-GRPRTTWF-OH  RAC-alpha serine/threonine-protein kinase (Homo sapiens, UniProt P31749)          < 3.30
2  Ac-GRPRTTHF-OH  RAC-alpha serine/threonine-protein kinase (Homo sapiens, UniProt P31749)          < 3.30

The measured values listed here are drawn from ChEMBL document CHEMBL1139137.
